Tested on: Cryptococcus neoformans
measurement description: Antifungal activity against Cryptococcus neoformans ATCC 208821 assessed as fungal growth inhibition incubated for 36 hrs by resazurin dye based analysis
Format: functional
observed property: MIC

input: Please tell me: MIC of C[C@]1(C(=O)NCCCNCCCCCCN)CCC[C@]2(C)c3cc(O)ccc3CC[C@@H]12.O=C(O)C(F)(F)F.O=C(O)C(F)(F)F , system Cryptococcus neoformans?
output: > 48.6 µM

input: Please tell me: MIC of C[C@]1(C(=O)NCCCNCCCCCCCCCCN)CCC[C@]2(C)c3cc(OC(=O)NCCCNCCCCCCCCCCN)ccc3CC[C@@H]12.O=C(O)C(F)(F)F.O=C(O)C(F)(F)F.O=C(O)C(F)(F)F.O=C(O)C(F)(F)F , system Cryptococcus neoformans?
output: > 26.7 µM

input: Please tell me: MIC of C[C@]1(C(=O)O)CCC[C@]2(C)c3cc(OC(=O)NCCCNCCCCCCCCN)ccc3CC[C@@H]12.O=C(O)C(F)(F)F.O=C(O)C(F)(F)F , system Cryptococcus neoformans?
output: > 43.8 µM

input: Please tell me: MIC of C[C@]1(C(=O)O)CCC[C@]2(C)c3cc(OC(=O)NCCCNCCCCCCCN)ccc3CC[C@@H]12.O=C(O)C(F)(F)F.O=C(O)C(F)(F)F , system Cryptococcus neoformans?
output: > 44.7 µM

input: Please tell me: MIC of CCCCCNC(=O)[C@@]1(C)CCC[C@]2(C)c3cc(OC(=O)CCCNCCCCCCCNCCCNC(=O)Oc4ccc5c(c4)[C@@]4(C)CCC[C@](C)(C(=O)NCCCCC)[C@@H]4CC5)ccc3CC[C@@H]12.O=C(O)C(F)(F)F.O=C(O)C(F)(F)F , system Cryptococcus neoformans?
output: 3.3 µM

input: Please tell me: MIC of C[C@]1(C(=O)NCCCNCCCCCCCCCCNCCCNC(=O)[C@@]2(C)CCC[C@]3(C)c4cc(O)ccc4CC[C@@H]23)CCC[C@]2(C)c3cc(O)ccc3CC[C@@H]12.O=C(O)C(F)(F)F.O=C(O)C(F)(F)F , system Cryptococcus neoformans?
output: 3.89 µM

input: Please tell me: MIC of COC(=O)[C@@]1(C)CCC[C@]2(C)c3cc(OC(=O)CCCNCCCCCCCCCCCCNCCCNC(=O)Oc4ccc5c(c4)[C@@]4(C)CCC[C@](C)(C(=O)OC)[C@@H]4CC5)ccc3CC[C@@H]12.O=C(O)C(F)(F)F.O=C(O)C(F)(F)F , system Cryptococcus neoformans?
output: 0.43 µM

====

Test system: Staphylococcus aureus
measurement description: Antibacterial activity against methicillin-resistant Staphylococcus aureus ATCC 43300 assessed as inhibition of bacterial growth measured after 18 hrs by resazurin dye based analysis
Format: functional
observed property: MIC

Example entries begin here.
C[C@]1(C(=O)O)CCC[C@]2(C)c3cc(OC(=O)CCCNCCCCCCCNCCCNC(=O)Oc4ccc5c(c4)[C@@]4(C)CCC[C@](C)(C(=O)O)[C@@H]4CC5)ccc3CC[C@@H]12.O=C(O)C(F)(F)F.O=C(O)C(F)(F)F
> 29.8 µM
C[C@]1(C(=O)NCCCNCCCCCCNCCCNC(=O)[C@@]2(C)CCC[C@]3(C)c4cc(O)ccc4CC[C@@H]23)CCC[C@]2(C)c3cc(O)ccc3CC[C@@H]12.O=C(O)C(F)(F)F.O=C(O)C(F)(F)F
32.9 µM
C[C@]1(C(=O)O)CCC[C@]2(C)c3cc(OC(=O)CCCNCCCCCCCCCCNCCCNC(=O)Oc4ccc5c(c4)[C@@]4(C)CCC[C@](C)(C(=O)O)[C@@H]4CC5)ccc3CC[C@@H]12.O=C(O)C(F)(F)F.O=C(O)C(F)(F)F
> 28.7 µM

input: What MIC value was documented for this molecule, COC(=O)[C@@]1(C)CCC[C@]2(C)c3cc(OC(=O)CCCNCCCCCCCCCCNCCCNC(=O)Oc4ccc5c(c4)[C@@]4(C)CCC[C@](C)(C(=O)OC)[C@@H]4CC5)ccc3CC[C@@H]12.O=C(O)C(F)(F)F.O=C(O)C(F)(F)F ?
output: 3.5 µM
